Tested on: COLO 205 colon
Assay: NCI-60 one-dose screen, 48 h (100 = growth as untreated, 0 = no growth, -100 = all killed)
Conditions: 10 µM unless noted
About 83,000 compounds went through this panel and 20% of them were active in at least one assay; those are over-represented in the sample as a whole. Active and inactive are the calls of the source. How the source made its calls: active means growth percent below 10; inactive means the rest.
Item-by-item account of growth

- Cn1cc(-c2ccc(-c3cn(C)c4ncccc34)[nH]2)c2cccnc21: -23.6% (active)
- CC1CN(C(C)C)C(=S)N(c2ccccc2)C1=O (configuration not stated): 157% (inactive)
- O=[N+]([O-])c1c(F)cccc1Nc1cccc(F)c1: 121% (inactive)
- COc1cc(-c2c3c(nc4c2c(C)nn4-c2ccccc2)-c2ccccc2C(=O)C3=O)cc(OC)c1OC: 69.7% (inactive)
- Nc1cc(-c2nc3sccn3c2-c2ccnc(NCCCNS(=O)(=O)c3ccc(F)cc3)n2)ccc1F: 32.4% (inactive)

Requested read-out: growth. Entry: `CC(C)n1cc2c(N)ncnc2n1`
118% (inactive)

Form field: reported growth of `CC(C)Oc1nc2c(c(=O)n(C)c(=O)n2C)n1C`
102% (inactive)

====

System: HOP-92 NSCLC
Assay: NCI-60 one-dose screen, 48 h
Details: 10 µM unless noted
About 83,000 compounds went through this panel and 20% of them were active in at least one assay; those are over-represented in the sample as a whole. Active and inactive are the calls of the source. The calls were made as follows: active = growth percent below 10; inactive = the rest.
Outcome (select one): YES for active, NO for inactive

# count of solved cases: 8
* COc1ccc(-n2cc(-c3ccccc3)c3c(SCC(=O)N/N=C/c4ccc([N+](=O)[O-])cc4)ncnc32)cc1 | NO
* Cc1noc(C)c1-c1cc(O)cc(C(O)c2ccccc2)c1 (stereo not given) | NO
* COc1cc(C#N)cc(OC)c1OCCN(CCOc1c(OC)cc(C#N)cc1OC)S(=O)(=O)c1ccc(C)cc1 | NO
* CCOc1ccc(Nc2nc(-c3c(C)nc4ncccn34)cs2)cc1 | NO
* CCCCNP1(NCCCC)=NP(NCCCC)(NCCCC)=NP(NCCCC)(NCCCC)=NP(NCCCC)(NCCCC)=N1 | YES
* CN1CCOCCOCCOc2ccccc2NC(=O)c2nc(cnc2N)-c2ccc(cc2)S1(=O)=O | NO
* C=C1CC2(OC1=O)C(=O)Nc1ccccc12 (stereo not given) | YES
* O=C(C[C@@H](C(=O)NCc1cccc(C(F)(F)F)c1)N1C(=O)[C@@H](N2C(=O)OC[C@@H]2c2ccccc2)[C@H]1/C=C/c1ccccc1)NC1CCN(Cc2ccccc2)CC1 | NO

Look up the recorded call for `CC(C)Oc1nc2c(c(=O)n(C)c(=O)n2C)n1C` in this test.
NO

Outcome logged for `O=C(O)c1cccc2c1-c1ccccc1C2=O` in this assay:
NO

# outcome recorded in this test, key = `CN1/C(=C\C=C\C2=[N+](C)c3ccccc3C2(C)C)C(C)(C)c2ccccc21`
YES

Outcome logged for `Cn1cc(-c2csc(-c3cn(C)c4ncccc34)n2)c2ccccc21` in this assay:
NO

Name the outcome recorded for Cc1nn(-c2nc3ccccc3[nH]2)c2c1C(c1ccc3c(c1)OCO3)CC(=O)N2 (stereo not given) in the assay.
NO

====

Test system: CCRF-CEM leukemia
Test: NCI-60 one-dose screen, 48 h
Details: 10 µM unless noted
Description: Growth inhibition of the CCRF-CEM human tumor cell line is measured as a screen for anti-cancer activity. Cells are grown in 96 well plates and exposed to the test compound for 48 hours. Compounds are tested at a single concentration, which is 10^-5 M for most compounds. The reported endpoint is percent growth (GI% or GIPRCNT), where numbers from 0 - 100% represent growth inhibition, and numbers from -100% - 0 represent cell death. For example, a value of 40 represents 60% growth inhibition. […]
About 83,000 compounds went through this panel and 20% of them were active in at least one assay; those are over-represented in the sample as a whole. Calls of active or inactive are those of the source. Rule for the calls: active = growth percent below 10; inactive = the rest.
Respond only with the outcome that fits, drawn from active, inactive

State the result this test recorded for `O=C(Nc1cccc2[nH]c(C(F)(F)F)nc12)c1ccc(Br)cc1F` .
inactive

Hello, I am checking results. What call was entered for `COc1nc2c(cc1S(=O)(=O)c1ccccc1)CCc1c-2cnn1-c1ccc(Cl)cc1` ?
inactive

For `C=CCSc1nnc(-c2ccc(C(C)(C)C)cc2)n1-c1cccc(C(F)(F)F)c1` , which call appears in the assay record?
inactive

Please share the test call associated with `O=C(O)c1ccc2c(c1Sc1ccccc1)C(=O)c1ccccc1C2=O` .
inactive

Fill in: this test's call for `O=C([C@@H](COCc1ccccc1)N1C(=O)[C@@H](N2C(=O)OC[C@@H]2c2ccccc2)[C@H]1/C=C/c1ccccc1)N1CCC(CCN2CCCCC2)CC1` is ___
inactive

Tell me the recorded outcome of this test for `Fc1ccc(Cc2ccc(F)cc2)cc1` .
inactive

What did this assay record as the result for `CCN(CC)Cc1cc(Nc2c3ccc(Cl)cc3nc3c(C)cccc23)ccc1O` ?
active

Answer briefly: the call reported for `C=C(CN1CCN(c2cccc(C(F)(F)F)n2)CC1)c1ccc(C(=O)Nc2ccccc2N)cc1` in this assay.
active

How was `CCOC(=O)c1ccc2c(c1)nc(/C=C/c1ccc(Cl)cc1)n2-c1cc(C(C)(C)C)[nH]n1` classified in this test?
inactive

====

growth overview
System: HT29 colon
Assay: NCI-60 one-dose screen, 48 h (100 = growth as untreated, 0 = no growth, -100 = all killed)
Settings: 10 µM unless noted
The panel holds about 83,000 compounds, 20% with a hit somewhere; the sample as a whole holds those more often. Active and inactive are the calls of the source. Rule for the calls: active = growth percent below 10; inactive = the rest.

• OCCNCCNc1c2ccccc2nc2ccccc12 = 58% (inactive)

Please report the recorded growth for COc1cccc2c1C(=O)c1c(O)c3c(c(O)c1C2=O)C[C@@](O)(/C(C)=N/NC(=O)c1ccc(Cl)cc1)C[C@@H]3OC1CC(N)C(O)C(C)O1 (stereo partly specified) .
-42.6% (active)

Recorded growth for `Cc1cc2cc3cc(C)c(N(C)C)cc3nc2cc1N(C)C` , please?
15.9% (inactive)

Entry `C[C@@H]1CC[C@@H]2[C@@H]1[C@H](OC(=O)/C=C/c1ccccc1)[C@]1(c3ccccc3)C[C@@H](OC(=O)CO)[C@@]2(C)O1` : reported growth = ?
92.2% (inactive)

What measured growth goes with `Cc1ccc2c(c1)C(=O)/C(=C/c1ccc(OCC(=O)c3ccccc3)cc1)O2` ?
101% (inactive)

Query: growth; subject: `CCN(CC)Cc1cc(Nc2c3ccc(Cl)cc3nc3c(C)cccc23)ccc1O`
-41.8% (active)

====

Test system: OVCAR-8 ovarian
Assay: NCI-60 one-dose screen, 48 h (100 = growth as untreated, 0 = no growth, -100 = all killed)
Conditions: 10 µM unless noted
The panel holds about 83,000 compounds, 20% with a hit somewhere; the sample as a whole holds those more often.
Entries annotated with measured growth
The reply should be a number in %, with the unit left off.

// below: answered molecules
- CN(C)C(=O)c1cc2cnc(Nc3ccc(-c4csc5c(=O)cc(N6CCNCC6)oc45)cc3)nc2n1C1CCCC1: 20.7
- CS(=O)(=O)c1c(Nc2ccccc2)n[nH]c1N: 105
- C/C(Cc1ccc(Cl)cc1)=C(\c1ccc(OCCN2CCCCCC2)cc1)c1ccc(OC(=O)C2CCCCC2)cc1: 66.2
- O=C1c2cc3c(cc2-c2c1c1cc(Cl)c(Cl)cc1c(=O)n2C[C@H](O)CO)OCO3: -20.2
- Cl/C(=N\Nc1ccccc1)c1ccccc1: 75.8

Dear colleague, I am looking for the recorded growth of the following molecule: `CCCCCN(CCCCC)CCC[C@@H](C)[C@H]1CC[C@H]2[C@@H]3[C@H](OCCCN)C[C@@H]4C[C@H](OCCCN)CC[C@]4(C)[C@H]3C[C@H](OCCCN)[C@]12C`
55.3

Which growth reading was recorded for the molecule `Cn1c2ccccc2c2c3c(c4c5ccccc5[nH]c4c21)C(=O)N(N)C3=O` ?
66.7

I am curious: what growth value has been reported for `c1ccc(-c2nc(N3CCOCC3)c3c4c(sc3n2)CCCCC4)nc1` ?
81.2

Name the recorded growth for `O=C1C[C@H](Sc2nc(-c3ccc(F)cc3)cc(C(F)(F)F)n2)[C@H]2CO[C@@H]1O2` .
97.4

For the molecule `NC(N)=Nc1ccc(S(=O)(=O)O)cc1` , what growth is on record?
107

Consider the molecule `COc1ccc(/C=C/C(=O)c2ccc(NC(=O)c3cc4cc5ccccc5nc4s3)cc2)cc1OC` and give its measured growth.
111

What measured growth goes with `CNC(=O)c1cc(Oc2ccc3nc(NC(=O)Nc4ccc(CN5CCOCC5)c(C(F)(F)F)c4)sc3c2)ccn1` ?
18

Requested field: growth. Item: `CCCN(CCC)CN(CCC)CCC`
105

Find the recorded growth belonging to C=CC[N+]1(CCO)CCN=C1CCCCCCCCCCCCC (stereo not given) and report it.
-74.3

Please report the recorded growth for `CC1=C(NCCN2CCCC2)C(=O)c2c(OCc3ccc(F)c(Cl)c3)cccc2C1=O` .
74.8

Endpoint output: growth of `CC(=O)N1CC(Nc2ccc(OC(F)(F)F)cc2)=CC1=O` . Value?
26.1

# growth lookup, item CCC(c1ccc(O)cc1)C(CC)c1ccc(O)c(F)c1 (stereo not given)
98.4

GET /values?readout=growth&item= `COC(=O)[C@H](C(C)C)n1c(=O)c2cc(OC)c(OC)cc2c2cnc3[nH]ccc3c21`
65.1

Sample CCN(CC)CCCC(C)NCCCNc1cccc2cccnc12 (stereo not given) — what was its growth?
91.9

For the molecule `CCN(C(=O)CN1CCN(c2cc3c(cc2F)c(=O)c(C(=O)O)cn3CC)CC1)c1nc(-c2ccccc2)cs1` , what growth is on record?
7.67
